Please go through the items and note down their pIC50.
- study.target: amylin receptor (membrane-bound, rat basal forebrain membranes containing the nucleus accumbens and surrounding regions) (rat)
- method: competition with ^125I Bolton-Hunter amylin on rat basal forebrain membranes, filtration
Bridge positions count the residues as written; N and C are the ends. Ends that are not written are not given here.
# pIC50 is unitless: minus log10 of the molar concentration; print number only

Reported pIC50 of KCNTATCATQRLANFLVHSSNNFGPILPSTNVGSNTY [^25,28Pro-h-Amylin] : 10.59

Reported pIC50 of CNTATCATQRLANFLVRSSNNFGPILPSTNVGSNTY [des-^1Lys^18Arg^25,28Pro-h-Amylin] : 10.09

Reported pIC50 of KDNTATKATQRLANFLVHSSNNFGAILSSTNVGSNTY (lactam 2-7; ends not checked) [^2,7Cyclo-[^2Asp,^7Lys]-h-Amylin] : 9.51
